Details: 302.2 K; 101.33 kPa; Liquid; Vibrating tube method
Numbers after ± are expanded uncertainties.

>  <compound>
CCCCn1cc[n+](C)c1.COS(=O)(=O)[O-] [1-butyl-3-methylimidazolium methyl sulfate]

>  <mass density>
1203.1 ± 1.4 kg/m3

$$$$
>  <compound>
CCCCn1cc[n+](C)c1.O=S(=O)([O-])C(F)(F)F [1-butyl-3-methylimidazolium trifluoromethanesulfonate]

>  <mass density>
1300.8 ± 1.5 kg/m3

$$$$
>  <compound>
CCCCn1cc[n+](C)c1.F[P-](F)(F)(F)(F)F [1-butyl-3-methylimidazolium hexafluorophosphate]

>  <mass density>
1360.8 ± 0.9 kg/m3

$$$$
>  <compound>
CCCCn1cc[n+](C)c1.F[B-](F)(F)F [1-butyl-3-methylimidazolium tetrafluoroborate]

>  <mass density>
1198.3 ± 0.9 kg/m3

$$$$

----------
Conditions: 303.2 K; 101.33 kPa; Liquid; Vibrating tube method
± gives the expanded uncertainty stated by the source.

>  <molecule>
CCCCn1cc[n+](C)c1.F[P-](F)(F)(F)(F)F [1-butyl-3-methylimidazolium hexafluorophosphate]

>  <mass density>
1360.1 ± 0.9 kg/m3

$$$$
>  <molecule>
CCCCn1cc[n+](C)c1.O=S(=O)([O-])C(F)(F)F [1-butyl-3-methylimidazolium trifluoromethanesulfonate]

>  <mass density>
1300 ± 1.5 kg/m3

$$$$
>  <molecule>
CCCCn1cc[n+](C)c1.COS(=O)(=O)[O-] [1-butyl-3-methylimidazolium methyl sulfate]

>  <mass density>
1202.5 ± 1.4 kg/m3

$$$$
>  <molecule>
CCCCn1cc[n+](C)c1.F[B-](F)(F)F [1-butyl-3-methylimidazolium tetrafluoroborate]

>  <mass density>
1197.6 ± 0.9 kg/m3

$$$$

----------
Settings: 333.2 K; 101.33 kPa; Liquid; Vibrating tube method
Numbers after ± are expanded uncertainties.

>  <compound>
CCCCn1cc[n+](C)c1.O=S(=O)([O-])C(F)(F)F [1-butyl-3-methylimidazolium trifluoromethanesulfonate]

>  <mass density>
1277.1 ± 1.5 kg/m3

$$$$
>  <compound>
CCCCn1cc[n+](C)c1.COS(=O)(=O)[O-] [1-butyl-3-methylimidazolium methyl sulfate]

>  <mass density>
1183.5 ± 1.4 kg/m3

$$$$
>  <compound>
CCCCn1cc[n+](C)c1.F[B-](F)(F)F [1-butyl-3-methylimidazolium tetrafluoroborate]

>  <mass density>
1177.2 ± 0.9 kg/m3

$$$$
>  <compound>
CCCCn1cc[n+](C)c1.F[P-](F)(F)(F)(F)F [1-butyl-3-methylimidazolium hexafluorophosphate]

>  <mass density>
1336.9 ± 0.9 kg/m3

$$$$

----------
Listing: refractive index of selected molecules
Assay: refractive index (Na D-line) (dimensionless)
Details: 308.2 K; 101.33 kPa; Liquid; Standard Abbe refractometry
readout: refractive index

>  <molecule>
CCCCn1cc[n+](C)c1.COS(=O)(=O)[O-] [1-butyl-3-methylimidazolium methyl sulfate]

>  <value-reported>
1.4766

$$$$
>  <molecule>
CCCCn1cc[n+](C)c1.F[B-](F)(F)F [1-butyl-3-methylimidazolium tetrafluoroborate]

>  <value-reported>
1.4195

$$$$
>  <molecule>
CCCCn1cc[n+](C)c1.O=S(=O)([O-])C(F)(F)F [1-butyl-3-methylimidazolium trifluoromethanesulfonate]

>  <value-reported>
1.4346

$$$$
>  <molecule>
CCCCn1cc[n+](C)c1.F[P-](F)(F)(F)(F)F [1-butyl-3-methylimidazolium hexafluorophosphate]

>  <value-reported>
1.4075

$$$$

----------
Settings: 313.2 K; 101.33 kPa; Liquid; Vibrating tube method
Catalogue of compounds with associated mass density
readout: mass density (kg/m3)

>  <compound>
CCCCn1cc[n+](C)c1.F[B-](F)(F)F [1-butyl-3-methylimidazolium tetrafluoroborate]

>  <readout>
mass density

>  <value-reported>
1190.8

$$$$
>  <compound>
CCCCn1cc[n+](C)c1.O=S(=O)([O-])C(F)(F)F [1-butyl-3-methylimidazolium trifluoromethanesulfonate]

>  <readout>
mass density

>  <value-reported>
1292.4

$$$$
>  <compound>
CCCCn1cc[n+](C)c1.F[P-](F)(F)(F)(F)F [1-butyl-3-methylimidazolium hexafluorophosphate]

>  <readout>
mass density

>  <value-reported>
1352.8

$$$$
>  <compound>
CCCCn1cc[n+](C)c1.COS(=O)(=O)[O-] [1-butyl-3-methylimidazolium methyl sulfate]

>  <readout>
mass density

>  <value-reported>
1196.2

$$$$

----------
Conditions: 318.2 K; 101.33 kPa; Liquid; Vibrating tube method
Numbers after ± are expanded uncertainties.
readout: mass density

>  <molecule>
CCCCn1cc[n+](C)c1.COS(=O)(=O)[O-] [1-butyl-3-methylimidazolium methyl sulfate]

>  <value-reported>
1193 ± 1.4 kg/m3

$$$$
>  <molecule>
CCCCn1cc[n+](C)c1.F[P-](F)(F)(F)(F)F [1-butyl-3-methylimidazolium hexafluorophosphate]

>  <value-reported>
1348.8 ± 0.9 kg/m3

$$$$
>  <molecule>
CCCCn1cc[n+](C)c1.O=S(=O)([O-])C(F)(F)F [1-butyl-3-methylimidazolium trifluoromethanesulfonate]

>  <value-reported>
1288.6 ± 1.5 kg/m3

$$$$
>  <molecule>
CCCCn1cc[n+](C)c1.F[B-](F)(F)F [1-butyl-3-methylimidazolium tetrafluoroborate]

>  <value-reported>
1187.4 ± 0.9 kg/m3

$$$$

----------
Recorded mass density by entry
Conditions: 307.2 K; 101.33 kPa; Liquid; Vibrating tube method

>  <compound>
CCCCn1cc[n+](C)c1.O=S(=O)([O-])C(F)(F)F [1-butyl-3-methylimidazolium trifluoromethanesulfonate]

>  <mass density [kg/m3]>
1297

$$$$
>  <compound>
CCCCn1cc[n+](C)c1.F[B-](F)(F)F [1-butyl-3-methylimidazolium tetrafluoroborate]

>  <mass density [kg/m3]>
1194.9

$$$$
>  <compound>
CCCCn1cc[n+](C)c1.COS(=O)(=O)[O-] [1-butyl-3-methylimidazolium methyl sulfate]

>  <mass density [kg/m3]>
1199.9

$$$$
>  <compound>
CCCCn1cc[n+](C)c1.F[P-](F)(F)(F)(F)F [1-butyl-3-methylimidazolium hexafluorophosphate]

>  <mass density [kg/m3]>
1357

$$$$

----------
Assay: refractive index (Na D-line) (dimensionless)
Conditions: 300.2 K; 101.33 kPa; Liquid; Standard Abbe refractometry

>  <compound>
CCCCn1cc[n+](C)c1.COS(=O)(=O)[O-] [1-butyl-3-methylimidazolium methyl sulfate]

>  <refractive index>
1.4787

$$$$
>  <compound>
CCCCn1cc[n+](C)c1.O=S(=O)([O-])C(F)(F)F [1-butyl-3-methylimidazolium trifluoromethanesulfonate]

>  <refractive index>
1.4364

$$$$
>  <compound>
CCCCn1cc[n+](C)c1.F[B-](F)(F)F [1-butyl-3-methylimidazolium tetrafluoroborate]

>  <refractive index>
1.4213

$$$$
>  <compound>
CCCCn1cc[n+](C)c1.F[P-](F)(F)(F)(F)F [1-butyl-3-methylimidazolium hexafluorophosphate]

>  <refractive index>
1.4091

$$$$

----------
Settings: 304.2 K; 101.33 kPa; Liquid; Vibrating tube method
Reported mass density values for the following compounds.
readout: mass density (kg/m3)

>  <compound>
CCCCn1cc[n+](C)c1.F[B-](F)(F)F [1-butyl-3-methylimidazolium tetrafluoroborate]

>  <value-reported>
1196.9

$$$$
>  <compound>
CCCCn1cc[n+](C)c1.COS(=O)(=O)[O-] [1-butyl-3-methylimidazolium methyl sulfate]

>  <value-reported>
1201.9

$$$$
>  <compound>
CCCCn1cc[n+](C)c1.F[P-](F)(F)(F)(F)F [1-butyl-3-methylimidazolium hexafluorophosphate]

>  <value-reported>
1359.3

$$$$
>  <compound>
CCCCn1cc[n+](C)c1.O=S(=O)([O-])C(F)(F)F [1-butyl-3-methylimidazolium trifluoromethanesulfonate]

>  <value-reported>
1299.2

$$$$

----------
Settings: 305.2 K; 101.33 kPa; Liquid; Vibrating tube method
The following compounds are shown together with reported mass density values.
readout: mass density (kg/m3)

>  <compound>
CCCCn1cc[n+](C)c1.COS(=O)(=O)[O-] [1-butyl-3-methylimidazolium methyl sulfate]

>  <readout>
mass density

>  <value-units>
kg/m3

>  <value-reported>
1201.2

$$$$
>  <compound>
CCCCn1cc[n+](C)c1.F[B-](F)(F)F [1-butyl-3-methylimidazolium tetrafluoroborate]

>  <readout>
mass density

>  <value-units>
kg/m3

>  <value-reported>
1196.2

$$$$
>  <compound>
CCCCn1cc[n+](C)c1.F[P-](F)(F)(F)(F)F [1-butyl-3-methylimidazolium hexafluorophosphate]

>  <readout>
mass density

>  <value-units>
kg/m3

>  <value-reported>
1358.5

$$$$
>  <compound>
CCCCn1cc[n+](C)c1.O=S(=O)([O-])C(F)(F)F [1-butyl-3-methylimidazolium trifluoromethanesulfonate]

>  <readout>
mass density

>  <value-units>
kg/m3

>  <value-reported>
1298.5

$$$$

Origin of the recorded values: the NIST ThermoML archive (doi:10.1016/j.jct.2008.08.010)
